# System: 292921-168-R-J2-PDC KRAS tumor spheroid viability;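 note: drug exposure lasted seven days after spheroids formed for three days; percent of DMSO vehicle control viability which is 100%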
# Assay text: Anticancer human tumor 292921-168-R-J2-PDC patient-derived pancreatic carcinoma cell line growth inhibition [KRAS2]
# Condition notes: second compound 0.316 µM; first compound 0.1 µM; stronger effect = lower value; spheroids with HUVEC and MSC
Provide the reported viability, T/C of each item.
Write the number in % without appending the unit.

Inquiry: Recorded viability, T/C for COc1cc(Nc2ncc3c(n2)-c2ccc(Cl)cc2C(c2c(F)cccc2OC)=NC3)ccc1C(=O)O + COc1cc2nc(C)nc(NC(C)c3cc(N)cc(C(F)(F)F)c3)c2cc1OC1CCOC1 , please?
Reply text: 21.9

Inquiry: Form field: reported viability, T/C of CCN1CCN(Cc2ccc(Nc3ncc(F)c(-c4cc(F)c5nc(C)n(C(C)C)c5c4)n3)nc2)CC1 + COc1cc2nc(C)nc(NC(C)c3cc(N)cc(C(F)(F)F)c3)c2cc1OC1CCOC1
Reply text: 32.8

Inquiry: Name the recorded viability, T/C for Cn1nccc1Nc1nccc(-c2cc3c(s2)C(C)(C)N(CCN2CCOCC2)C3=O)n1 + C=CC(=O)N1CCN(c2nc(=O)n(-c3c(C)ccnc3C(C)C)c3nc(-c4c(O)cccc4F)c(F)cc23)C(C)C1 .
Reply text: 58.5

Inquiry: Entry Cn1ncnc1[C@H]1c2n[nH]c(=O)c3cc(F)cc(c23)N[C@@H]1c1ccc(F)cc1 + C=CC(=O)N1CCN(c2nc(OCC3CCCN3C)nc3c2CCN(c2cccc4cccc(C)c24)C3)CC1CC#N has what viability, T/C?
Reply text: 46.4

Inquiry: Using the record for CC1OCC2(CCN(c3cnc(Sc4ccnc(N)c4Cl)c(N)n3)CC2)C1N (stereo not given) + COc1cc2nc(C)nc(NC(C)c3cc(N)cc(C(F)(F)F)c3)c2cc1OC1CCOC1 , report its viability, T/C.
Reply text: 53

meta.source: PubChem BioAssay AID1963870
